All values here come from ChEMBL document CHEMBL5046307.

Listed below: logD values for each entry.
- procedure_details: Lipophilicity, logD of compound
- stated_conditions: octanol/water
Number, no unit, nothing else.

compound=c1ccc2oc(-c3csc(C4CCN(Cc5nc6ccccc6[nH]5)CC4)n3)cc2c1 value_observed=3.4
compound=Cc1nsc(NC(=O)CN2CCC(c3nc(-c4cc5ccccc5o4)cs3)CC2)c1Cl value_observed=5.1

Prompt: Consider the compound shown here: c1ccc2[nH]c(CN3CCC(c4nc(-c5nc6ccccc6s5)cs4)CC3)nc2c1 What is its recorded logD?
Response: 3.1

Prompt: Consider the compound shown here: O=C(c1nc2ccccc2[nH]1)N1CCC(c2nc(-c3cc4ccccc4o3)cs2)CC1 What is its recorded logD?
Response: 4.3

Prompt: Consider the compound shown here: c1ccc2oc(-c3csc(C4CCN(Cc5cn6ccncc6n5)CC4)n3)cc2c1 What is its recorded logD?
Response: 2.7

Prompt: Consider the compound shown here: Cc1ccc2[nH]c(CN3CCC(c4nc(-c5cc6ccccc6o5)cs4)CC3)nc2n1 What is its recorded logD?
Response: 3

Prompt: Consider the compound shown here: c1ccc2[nH]c(CN3CCC(c4nc(-c5cc6ncccc6o5)cs4)CC3)nc2c1 What is its recorded logD?
Response: 2.4

Prompt: Consider the compound shown here: c1ccc2oc(-c3csc(C4CCN(Cc5nc6ncccc6[nH]5)CC4)n3)cc2c1 What is its recorded logD?
Response: 2.8

Prompt: Consider the compound shown here: Cc1nsc(NC(=O)C(C)N2CCC(c3nc(-c4cc5ccccc5o4)cs3)CC2)c1Cl (racemic) What is its recorded logD?
Response: 5.6

Prompt: Consider the compound shown here: CN(C(=O)CN1CCC(c2nc(-c3cc4ccccc4o3)cs2)CC1)c1ccncc1 What is its recorded logD?
Response: 3

Prompt: Consider the compound shown here: CC(c1nc2ccccc2[nH]1)N1CCC(c2nc(-c3cc4ccccc4o3)cs2)CC1 (racemic) What is its recorded logD?
Response: 3.7

Prompt: Consider the compound shown here: CCc1nccc(N2CCC(N3CCC(c4nc(-c5cc6ccccc6o5)cs4)CC3)C2=O)c1Cl (single isomer, unassigned; form 1) What is its recorded logD?
Response: 4.2
